- Experiment Summary: Selectivity index, ratio of cytotoxicity towards human HepG2.2.15 cells to IC50 for HBV e antigen secretion
- Format: toxicity, cell-based
- Details: read-out: Selectivity Index
Items are presented alongside their recorded selectivity ratio.
Please respond with just the number, no unit label.

Structure	Value Observed
CC(=O)O[C@H]([C@@H]1C[C@@H](C)C2=C3C[C@H](O)[C@H]4[C@@]5(C)CCC(=O)C(C)(C)[C@@H]5CC[C@]4(C)[C@@]3(C)C[C@@H]2O1)C(C)(C)O	18.5

Next molecule, please.
The recorded selectivity ratio for C[C@@H]1CC[C@]2(C(=O)O[C@@H]3O[C@H](CO)[C@@H](O)[C@H](O)[C@H]3O)CC[C@]3(C)C(=CC[C@@H]4[C@@]5(C)C[C@@H](O)[C@H](O)C(C)(C)[C@@H]5CC[C@]43C)[C@@H]2[C@]1(C)O is 7.86
